Record form. Attribute: AC50. Fill in for each entry.
Biological target: Muscarinic acetylcholine receptor M2 (Homo sapiens, UniProt P08172); also: assay procedure not described here
Sequence (P08172 whole entry): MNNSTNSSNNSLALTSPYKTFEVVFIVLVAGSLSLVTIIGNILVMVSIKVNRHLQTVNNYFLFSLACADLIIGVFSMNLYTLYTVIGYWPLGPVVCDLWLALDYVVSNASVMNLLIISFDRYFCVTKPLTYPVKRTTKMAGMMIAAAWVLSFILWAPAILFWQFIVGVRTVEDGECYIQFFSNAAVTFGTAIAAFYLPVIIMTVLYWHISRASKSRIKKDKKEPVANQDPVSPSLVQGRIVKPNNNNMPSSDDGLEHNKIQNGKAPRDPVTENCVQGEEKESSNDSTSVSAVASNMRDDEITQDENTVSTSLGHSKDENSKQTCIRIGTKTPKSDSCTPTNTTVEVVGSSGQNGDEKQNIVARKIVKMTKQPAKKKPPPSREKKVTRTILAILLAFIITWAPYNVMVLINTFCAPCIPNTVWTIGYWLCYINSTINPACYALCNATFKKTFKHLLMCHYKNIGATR
Assay type: functional, cell-based

Exercise: Entry Cn1c(=O)c2c(ncn2CC2OCCO2)n(C)c1=O : reported AC50 = ?
Solution: > 30 µM

Exercise: Continue with CCC(C)n1ncn(-c2ccc(N3CCN(c4ccc(OCC5COC(Cn6cncn6)(c6ccc(Cl)cc6Cl)O5)cc4)CC3)cc2)c1=O (stereo not drawn)
Solution: > 30 µM

Exercise: Also N[C@@H]1[C@H]2CN(c3nc4c(cc3F)c(=O)c(C(=O)O)cn4-c3ccc(F)cc3F)C[C@@H]12 ?
Solution: > 30 µM

Exercise: What would you report for CC(=O)Nc1ccc(O)cc1 ?
Solution: > 30 µM

Exercise: Repeat for the following compound: CC(C)Cn1cnc2c(N)nc3ccccc3c21
Solution: > 10 µM

Exercise: Now consider C=CCC1(CC(C)C)C(=O)NC(=O)NC1=O .
Solution: > 10 µM

Exercise: Follow-up entry: Cc1ccc(-c2cc(C(F)(F)F)nn2-c2ccc(S(N)(=O)=O)cc2)cc1
Solution: > 10 µM

Exercise: Input CCOc1ccccc1OCC1CNCCO1 (stereo not drawn)
Solution: > 10 µM

Exercise: Check O=C1C(O)=C([C@H]2CC[C@H](c3ccc(Cl)cc3)CC2)C(=O)c2ccccc21 too.
Solution: > 30 µM

Exercise: Let us now turn to CCCc1nc(C(C)(C)O)c(C(=O)OCc2oc(=O)oc2C)n1Cc1ccc(-c2ccccc2-c2nnn[nH]2)cc1
Solution: > 10 µM

Exercise: Thanks! And CS(=O)(=O)c1ccc(C2=C(c3ccccc3)C(=O)OC2)cc1 ?
Solution: > 30 µM

Exercise: Proceed to Cc1cc(C)c(NC(=O)CN(CC(=O)O)CC(=O)O)c(C)c1Br
Solution: > 30 µM

Exercise: Check Nc1nc(/C(=C/CC(=O)O)C(=O)N[C@@H]2C(=O)N3C(C(=O)O)=CCS[C@H]23)cs1 too.
Solution: > 30 µM

Exercise: Next entry: C=CCN1C[C@H](C(=O)N(CCCN(C)C)C(=O)NCC)C[C@@H]2c3cccc4[nH]cc(c34)C[C@H]21
Solution: > 30 µM

Exercise: Do the same for C[C@H](CSC(=O)c1ccccc1)C(=O)N1C[C@@H](Sc2ccccc2)C[C@H]1C(=O)O please
Solution: > 10 µM

Exercise: Item: CN1C(=O)CCS(=O)(=O)C1c1ccc(Cl)cc1 (stereo not drawn)
Solution: > 10 µM

Exercise: // next record O=C(O)[C@H](CC(=O)N1C[C@H]2CCCC[C@H]2C1)Cc1ccccc1 [MITIGLINIDE]
Solution: > 10 µM

Exercise: How about C[C@H]1CNCCc2ccc(Cl)cc21 ?
Solution: > 30 µM

---

target: Amine oxidase [flavin-containing] A (Homo sapiens, UniProt P21397); format: functional; also: assay procedure not described here
Sequence (P21397 whole entry): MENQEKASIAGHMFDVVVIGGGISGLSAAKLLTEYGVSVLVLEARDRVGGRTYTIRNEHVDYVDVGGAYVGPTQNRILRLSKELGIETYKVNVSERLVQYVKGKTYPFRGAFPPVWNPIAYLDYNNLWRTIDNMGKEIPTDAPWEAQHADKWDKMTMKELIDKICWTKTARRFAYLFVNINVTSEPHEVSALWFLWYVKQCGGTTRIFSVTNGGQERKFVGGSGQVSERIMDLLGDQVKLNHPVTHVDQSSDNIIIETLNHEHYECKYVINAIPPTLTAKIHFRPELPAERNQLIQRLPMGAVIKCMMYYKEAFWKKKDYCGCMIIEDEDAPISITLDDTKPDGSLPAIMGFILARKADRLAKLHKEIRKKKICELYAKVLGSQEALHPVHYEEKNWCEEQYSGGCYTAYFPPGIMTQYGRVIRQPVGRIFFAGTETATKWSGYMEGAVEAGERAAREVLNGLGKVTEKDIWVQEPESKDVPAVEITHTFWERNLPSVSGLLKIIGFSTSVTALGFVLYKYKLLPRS
VALUE_KIND: AC50

Exercise: // AC50 lookup, key: COCc1c(C(C)C)nc(C(C)C)c(/C=C/[C@@H](O)C[C@@H](O)CC(=O)O)c1-c1ccc(F)cc1
Solution: > 30 µM

Exercise: # iterate: C=CCc1ccccc1OCC(O)CNC(C)C (centres undefined)
Solution: > 0.3 µM

Exercise: Repeat for the following compound: C=CCN1C[C@H](C(=O)N(CCCN(C)C)C(=O)NCC)C[C@@H]2c3cccc4[nH]cc(c34)C[C@H]21
Solution: > 30 µM

Exercise: // repeat for CCOc1ccccc1OCC1CNCCO1 (centres undefined) and report
Solution: > 30 µM

---

Entries below carry reported AC50 on Sodium-dependent serotonin transporter (Homo sapiens, UniProt P31645).
Sequence (P31645 whole entry): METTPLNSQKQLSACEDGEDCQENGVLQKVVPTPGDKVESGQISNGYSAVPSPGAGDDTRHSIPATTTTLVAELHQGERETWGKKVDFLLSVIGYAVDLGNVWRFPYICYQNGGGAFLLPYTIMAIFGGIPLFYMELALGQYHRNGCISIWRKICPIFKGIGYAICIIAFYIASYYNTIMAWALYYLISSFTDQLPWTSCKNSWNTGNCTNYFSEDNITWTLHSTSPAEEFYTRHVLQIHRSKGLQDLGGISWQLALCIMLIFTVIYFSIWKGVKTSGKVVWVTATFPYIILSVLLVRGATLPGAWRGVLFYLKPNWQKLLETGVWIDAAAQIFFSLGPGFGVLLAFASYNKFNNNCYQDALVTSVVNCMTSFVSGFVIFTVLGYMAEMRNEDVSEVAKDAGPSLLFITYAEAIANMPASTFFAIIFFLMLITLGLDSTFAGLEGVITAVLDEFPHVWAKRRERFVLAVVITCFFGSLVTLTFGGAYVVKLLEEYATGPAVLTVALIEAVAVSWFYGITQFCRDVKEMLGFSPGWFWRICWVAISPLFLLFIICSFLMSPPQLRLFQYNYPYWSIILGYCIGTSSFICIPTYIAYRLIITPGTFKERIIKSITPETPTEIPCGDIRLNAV

Exercise: Any idea what AC50 was measured for CC(=O)Oc1ccc2c(c1)CC[C@@H]1[C@@H]2CC[C@]2(C)[C@@H](O)CC[C@@H]12 [ESTRADIOL ACETATE] ?
Solution: > 30 µM

Exercise: Try this molecule next: CO[C@]12C[C@@H](COC(=O)c3cncc(Br)c3)CN(C)[C@@H]1Cc1cn(C)c3cccc2c13
Solution: 7.26 µM

Exercise: What do you have for O=C(O)c1ccccc1C(=O)Nc1ccc(S(=O)(=O)Nc2nccs2)cc1 ?
Solution: > 30 µM

Exercise: And the next one, COc1ccccc1N1CCN(CC(O)COc2cccc3ccccc23)CC1 (centres undefined) ?
Solution: 1.43 µM

Exercise: And then CN(C)S(=O)(=O)c1ccc2c(c1)N(CCCN1CCC(CCO)CC1)c1ccccc1S2 , what is it?
Solution: > 30 µM

Exercise: Queued: CC(C)(C)C(=O)C(Oc1ccc(Cl)cc1)n1ccnc1 (centres undefined)
Solution: 29.7 µM

Exercise: Do the same for Cc1oc(=O)oc1CN1CCN(c2cc3c(cc2F)c(=O)c(C(=O)O)c2n3C(C)S2)CC1 (centres undefined) please
Solution: > 30 µM

Exercise: And what about the molecule OB1OCc2cc(F)ccc21 ?
Solution: > 30 µM

Exercise: Queued: NC1=NCC2c3ccccc3Cc3ccccc3N12 (centres undefined) [EPINASTINE]
Solution: 10.3 µM

Exercise: Let us now turn to C=CCN1C[C@H](C(=O)N(CCCN(C)C)C(=O)NCC)C[C@@H]2c3cccc4[nH]cc(c34)C[C@H]21
Solution: > 30 µM

Exercise: And O=C(Cc1ccc(-c2ccccc2)cc1)Nc1ccccn1 [DIFENPIRAMIDE] ?
Solution: > 30 µM

Exercise: And for O=C(OCC(O)CO)c1ccccc1Nc1ccnc2cc(Cl)ccc12 (centres undefined) ?
Solution: > 30 µM

Exercise: Would you mind doing O=[N+]([O-])c1cn2c(n1)OC[C@@H](OCc1ccc(OC(F)(F)F)cc1)C2 as well?
Solution: > 30 µM

Exercise: Similarly, COCCCN1CCC(NC(=O)c2cc(Cl)c(N)c3c2OCC3)CC1 [PRUCALOPRIDE] ?
Solution: > 30 µM

Exercise: Ok, now CCN(CC)CCc1nc(-c2ccccc2)no1
Solution: > 30 µM

Exercise: Consider next the molecule CC(C)Nc1ncccn1 in the same way.
Solution: > 30 µM

Exercise: Let us now turn to NNc1nnc(NN)c2ccccc12 [DIHYDRALAZINE]
Solution: > 30 µM

Exercise: // query: CCc1oc2ccccc2c1C(=O)c1cc(I)c(O)c(I)c1
Solution: > 30 µM

Exercise: Then CC(=O)N[C@@H]1[C@@H](O)[C@H](O)[C@@H](CO)O[C@H]1O ?
Solution: > 30 µM

---

target: Gamma-aminobutyric acid receptor subunit alpha-1/alpha-2/beta-2/gamma-2 (Homo sapiens, UniProt P14867+P18507+P47869+P47870); format: protein-complex assay; also: assay procedure not described here
Sequence (P14867 whole entry): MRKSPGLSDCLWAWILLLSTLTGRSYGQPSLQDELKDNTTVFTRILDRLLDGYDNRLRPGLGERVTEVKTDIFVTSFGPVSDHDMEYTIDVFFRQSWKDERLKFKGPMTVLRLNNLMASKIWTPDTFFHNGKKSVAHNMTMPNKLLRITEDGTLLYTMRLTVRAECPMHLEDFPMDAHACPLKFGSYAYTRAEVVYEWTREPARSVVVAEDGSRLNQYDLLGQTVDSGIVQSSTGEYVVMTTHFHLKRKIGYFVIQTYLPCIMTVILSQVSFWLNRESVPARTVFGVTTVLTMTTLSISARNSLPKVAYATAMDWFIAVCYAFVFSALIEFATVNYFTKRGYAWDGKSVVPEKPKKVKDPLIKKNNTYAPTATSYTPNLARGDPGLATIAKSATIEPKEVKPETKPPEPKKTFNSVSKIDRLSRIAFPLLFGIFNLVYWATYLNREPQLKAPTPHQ
Sequence (P47870 whole entry): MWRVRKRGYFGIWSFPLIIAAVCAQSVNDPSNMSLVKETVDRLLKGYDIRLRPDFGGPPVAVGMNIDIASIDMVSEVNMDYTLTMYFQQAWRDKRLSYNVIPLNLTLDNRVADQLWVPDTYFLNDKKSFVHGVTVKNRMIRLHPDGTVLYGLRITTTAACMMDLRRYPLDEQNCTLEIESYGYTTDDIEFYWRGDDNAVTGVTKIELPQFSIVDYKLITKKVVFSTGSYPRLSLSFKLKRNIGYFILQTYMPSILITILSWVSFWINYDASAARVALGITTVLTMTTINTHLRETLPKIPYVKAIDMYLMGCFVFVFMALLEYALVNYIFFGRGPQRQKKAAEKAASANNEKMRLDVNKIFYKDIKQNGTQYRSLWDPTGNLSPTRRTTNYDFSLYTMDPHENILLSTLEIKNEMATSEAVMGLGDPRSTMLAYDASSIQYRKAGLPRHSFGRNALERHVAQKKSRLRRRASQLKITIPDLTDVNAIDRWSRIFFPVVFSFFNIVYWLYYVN
Sequence (P18507 whole entry): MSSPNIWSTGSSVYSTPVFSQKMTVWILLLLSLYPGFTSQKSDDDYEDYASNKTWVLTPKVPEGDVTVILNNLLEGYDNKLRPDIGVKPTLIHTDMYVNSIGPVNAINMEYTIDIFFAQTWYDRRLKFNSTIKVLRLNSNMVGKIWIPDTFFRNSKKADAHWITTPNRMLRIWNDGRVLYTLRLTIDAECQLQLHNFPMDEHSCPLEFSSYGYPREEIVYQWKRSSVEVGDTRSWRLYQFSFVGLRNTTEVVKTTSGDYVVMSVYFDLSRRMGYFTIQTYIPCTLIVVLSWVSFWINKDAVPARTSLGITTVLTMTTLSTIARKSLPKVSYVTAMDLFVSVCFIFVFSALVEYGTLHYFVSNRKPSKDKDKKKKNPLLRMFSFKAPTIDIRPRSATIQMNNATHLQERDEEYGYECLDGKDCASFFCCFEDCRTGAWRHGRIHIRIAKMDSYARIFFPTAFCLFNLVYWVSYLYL
Sequence (P47869 whole entry): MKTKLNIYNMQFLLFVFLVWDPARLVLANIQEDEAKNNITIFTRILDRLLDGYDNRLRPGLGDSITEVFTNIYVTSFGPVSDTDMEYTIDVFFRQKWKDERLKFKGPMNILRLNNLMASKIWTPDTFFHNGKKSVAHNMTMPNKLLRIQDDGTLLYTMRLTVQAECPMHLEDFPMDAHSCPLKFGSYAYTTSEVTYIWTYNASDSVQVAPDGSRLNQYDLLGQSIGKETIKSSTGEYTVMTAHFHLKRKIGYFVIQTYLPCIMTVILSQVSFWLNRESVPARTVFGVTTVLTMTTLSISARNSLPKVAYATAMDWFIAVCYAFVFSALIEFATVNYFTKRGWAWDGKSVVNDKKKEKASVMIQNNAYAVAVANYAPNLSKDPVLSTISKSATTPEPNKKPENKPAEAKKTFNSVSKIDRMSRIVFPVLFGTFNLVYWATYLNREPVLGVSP
VALUE_KIND: AC50

Exercise: Bench note: what AC50 did CC(C)(S)[C@@H](N)C(=O)O show?
Solution: > 30 µM

Exercise: Query CC(C)(C)NC[C@H](O)COc1ccccc1C1CCCC1 next
Solution: > 30 µM

Exercise: Same lookup for CCOC(=O)/C=C1\SC(N2CCCCC2)C(=O)N1C (stereo not given) , please.
Solution: > 30 µM

Exercise: What do you have for CCN(CC)CCOC(=O)C(c1ccccc1)C1CCCCC1 (stereo not given) ?
Solution: > 30 µM

Exercise: Now try CCCNC(C)C(=O)Nc1c(C)csc1C(=O)OC (stereo not given) .
Solution: > 30 µM

Exercise: Same question, O=C(OCC(O)CO)c1ccccc1Nc1ccnc2cc(Cl)ccc12 (stereo not given) this time
Solution: > 30 µM

Exercise: Try this compound too: CCCCOC(=O)C(=O)[C@H]1[C@H](C)C[C@H]2[C@@H]3C[C@H](F)C4=CC(=O)C=C[C@]4(C)[C@H]3[C@@H](O)C[C@@]21C
Solution: > 30 µM

Exercise: Entry CC(C)C[C@H]1C(=O)N2CCC[C@H]2[C@]2(O)O[C@](NC(=O)[C@@H]3C[C@@H]4c5cccc6[nH]cc(c56)C[C@H]4N(C)C3)(C(C)C)C(=O)N12 [DIHYDROERGOCRYPTINE] please
Solution: > 30 µM

Exercise: Please answer likewise for NC1CCN(c2c(F)cc3c(=O)c(C(=O)O)cn(C4CC4)c3c2Cl)C1 (stereo not given)
Solution: > 30 µM

Exercise: Now try CC(=O)[C@@]1(O)CC[C@H]2[C@@H]3C=C(C)C4=CC(=O)CC[C@]4(C)[C@H]3CC[C@@]21C .
Solution: > 30 µM

Exercise: O=C(CCNNC(=O)c1ccncc1)NCc1ccccc1 [NIALAMIDE] , same question.
Solution: > 30 µM

Exercise: Try CCOC(=O)[C@H](CCc1ccccc1)N[C@@H](C)C(=O)N1CC2(C[C@H]1C(=O)O)SCCS2 next.
Solution: > 30 µM

Exercise: Continue with C[C@]12CC[C@@H]3c4ccc(O)cc4CC[C@H]3[C@@H]1C[C@@H](O)[C@@H]2O
Solution: > 30 µM

Exercise: Likewise for Nc1ccc2cc3ccc(N)cc3nc2c1 ?
Solution: > 30 µM

Exercise: Same read-out for CCOc1ccccc1C(N)=O [ETHENZAMIDE] ?
Solution: > 30 µM

Exercise: Same question for CC[N+]1(C)[C@@H]2CC(OC(=O)[C@H](CO)c3ccccc3)C[C@H]1[C@@H]1O[C@@H]12 (stereo not given in full) please.
Solution: > 30 µM

Exercise: And CC(=O)c1ccc2c(c1)N(CCCN(C)C)c1ccccc1S2 ?
Solution: > 30 µM

Exercise: And what about the compound O=C(O)c1cc(O)ccc1O ?
Solution: > 30 µM

Exercise: Same thing, different compound: NCC(CC(=O)O)c1ccc(Cl)cc1 (stereo not given)
Solution: > 30 µM

Exercise: CCN1CCCC1CNC(=O)c1cc(S(N)(=O)=O)ccc1OC (stereo not given) [SULPIRIDE] ?
Solution: > 30 µM
